Test system: antibodies in sera from SARS patients (sera 1a, 1b, 2, 6, 37, 62, London, SARS-yellow, SARS-green)
Format: binding, human
Readout label: Binding of serum 62 to linear peptides of protein N of SARS-CoV Urbani

Give reported Binding of serum 62 to linear peptides of protein N of SARS-CoV Urbani value for RGGDGKMKELSPRWY
0.6

Quickly give me recorded Binding of serum 62 to linear peptides of protein N of SARS-CoV Urbani for APRITFGGPTDSTDN
0.7

Report Binding of serum 62 to linear peptides of protein N of SARS-CoV Urbani for QIGYYRRATRRVRGG
0.6

Give the measured Binding of serum 62 to linear peptides of protein N of SARS-CoV Urbani for DNGPQSNQRSAPRIT
0.5

Quick one: give measured Binding of serum 62 to linear peptides of protein N of SARS-CoV Urbani for AFFGMSRIGMEVTPS
0.7

Input GPQSNQRSAPRITFG , output reported Binding of serum 62 to linear peptides of protein N of SARS-CoV Urbani.
0.7

Give the reported Binding of serum 62 to linear peptides of protein N of SARS-CoV Urbani for this sequence. LSPRWYFYYLGTGPE
0.9

Could you please provide reported Binding of serum 62 to linear peptides of protein N of SARS-CoV Urbani for KKKKTDEAQPLPQRQ ? Thanks!
0.7

Provide one value: measured Binding of serum 62 to linear peptides of protein N of SARS-CoV Urbani of RQLQNSMSGASADST
0.6

Fill in reported Binding of serum 62 to linear peptides of protein N of SARS-CoV Urbani for this entry: NSGPDDQIGYYRRAT
0.6

Kindly indicate its recorded Binding of serum 62 to linear peptides of protein N of SARS-CoV Urbani. Item: DMDDFSRQLQNSMSG
0.7

Give Binding of serum 62 to linear peptides of protein N of SARS-CoV Urbani for the following sequence: TLLPAADMDDFSRQL
0.7

Item NTASWFTALTQHGKE : provide Binding of serum 62 to linear peptides of protein N of SARS-CoV Urbani
0.5

Provide measured Binding of serum 62 to linear peptides of protein N of SARS-CoV Urbani value, entry: SASAFFGMSRIGMEV
0.6

Name the recorded Binding of serum 62 to linear peptides of protein N of SARS-CoV Urbani of the item GLPNNTASWFTALTQ in your answer.
0.6

Specify reported Binding of serum 62 to linear peptides of protein N of SARS-CoV Urbani for the sequence shown: NKEGIVWVATEGALN
0.6

Query Binding of serum 62 to linear peptides of protein N of SARS-CoV Urbani for ARPKQRRPQGLPNNT
0.6

Tell me measured Binding of serum 62 to linear peptides of protein N of SARS-CoV Urbani for FKDNVILLNKHIDAY please.
0.6

// Input: SAFFGMSRIGMEVTP . Output its Binding of serum 62 to linear peptides of protein N of SARS-CoV Urbani only.
0.8

Supply recorded Binding of serum 62 to linear peptides of protein N of SARS-CoV Urbani for PTDSTDNNQNGGRNG here.
0.8

---

System: antibodies in sera from SARS patients (sera 1a, 1b, 2, 6, 37, 62, London, SARS-yellow, SARS-green)
Type: binding, human
Design: unit not given here
Readout label: Binding of serum 1b to looped/cyclic peptides of protein N of SARS-CoV Urbani
// no unit string in output, number only

# return recorded Binding of serum 1b to looped/cyclic peptides of protein N of SARS-CoV Urbani for entry YYRRATRRVRGGDGK
0.1

State, in one line, measured Binding of serum 1b to looped/cyclic peptides of protein N of SARS-CoV Urbani of TVTKKSAAEASKKPR
0.1

Using known records, supply Binding of serum 1b to looped/cyclic peptides of protein N of SARS-CoV Urbani for KTFPPTEPKKDKKKK
0.1

Supply reported Binding of serum 1b to looped/cyclic peptides of protein N of SARS-CoV Urbani belonging to this sequence: NQRSAPRITFGGPTD
0.3

For the sequence RGGSQASSRSSSRSR , give its reported Binding of serum 1b to looped/cyclic peptides of protein N of SARS-CoV Urbani.
0.2

State its Binding of serum 1b to looped/cyclic peptides of protein N of SARS-CoV Urbani: RSAPRITFGGPTDST
0.2

Specify Binding of serum 1b to looped/cyclic peptides of protein N of SARS-CoV Urbani for AQFAPSASAFFGMSR and stop.
0.2

Note Binding of serum 1b to looped/cyclic peptides of protein N of SARS-CoV Urbani for the sequence shown: RATRRVRGGDGKMKE
0.1

For the sequence QLQNSMSGASADSTQ , give its measured Binding of serum 1b to looped/cyclic peptides of protein N of SARS-CoV Urbani value.
0.1
